Target: α4β7 integrin (Homo sapiens (Human), UniProt P13612+P26010)
Sequence (P13612 34-1032): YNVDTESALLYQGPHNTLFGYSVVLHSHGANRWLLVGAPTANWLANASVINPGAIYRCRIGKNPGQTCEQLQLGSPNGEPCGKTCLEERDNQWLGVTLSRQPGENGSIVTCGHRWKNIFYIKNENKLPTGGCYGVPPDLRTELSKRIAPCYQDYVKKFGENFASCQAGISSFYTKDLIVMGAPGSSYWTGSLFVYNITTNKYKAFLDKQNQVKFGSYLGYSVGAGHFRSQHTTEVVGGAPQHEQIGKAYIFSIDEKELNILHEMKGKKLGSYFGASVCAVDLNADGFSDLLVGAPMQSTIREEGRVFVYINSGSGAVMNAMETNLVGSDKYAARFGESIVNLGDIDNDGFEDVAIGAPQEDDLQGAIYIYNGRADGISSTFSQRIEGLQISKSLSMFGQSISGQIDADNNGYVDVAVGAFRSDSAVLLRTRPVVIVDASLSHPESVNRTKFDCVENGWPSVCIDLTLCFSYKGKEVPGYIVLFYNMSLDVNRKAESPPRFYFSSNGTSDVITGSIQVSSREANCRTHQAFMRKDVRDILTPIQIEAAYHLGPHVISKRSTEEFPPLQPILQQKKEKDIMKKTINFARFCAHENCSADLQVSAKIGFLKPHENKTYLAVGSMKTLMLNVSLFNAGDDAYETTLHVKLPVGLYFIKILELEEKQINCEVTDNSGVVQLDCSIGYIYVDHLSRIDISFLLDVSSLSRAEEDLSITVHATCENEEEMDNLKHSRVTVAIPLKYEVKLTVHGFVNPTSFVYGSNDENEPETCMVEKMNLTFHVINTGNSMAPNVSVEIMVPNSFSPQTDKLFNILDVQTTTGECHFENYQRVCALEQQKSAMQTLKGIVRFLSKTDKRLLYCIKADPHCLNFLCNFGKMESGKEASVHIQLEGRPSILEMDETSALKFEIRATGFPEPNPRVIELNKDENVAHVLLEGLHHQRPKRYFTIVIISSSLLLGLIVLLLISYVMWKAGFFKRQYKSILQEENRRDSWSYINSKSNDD
Sequence (P26010 20-798): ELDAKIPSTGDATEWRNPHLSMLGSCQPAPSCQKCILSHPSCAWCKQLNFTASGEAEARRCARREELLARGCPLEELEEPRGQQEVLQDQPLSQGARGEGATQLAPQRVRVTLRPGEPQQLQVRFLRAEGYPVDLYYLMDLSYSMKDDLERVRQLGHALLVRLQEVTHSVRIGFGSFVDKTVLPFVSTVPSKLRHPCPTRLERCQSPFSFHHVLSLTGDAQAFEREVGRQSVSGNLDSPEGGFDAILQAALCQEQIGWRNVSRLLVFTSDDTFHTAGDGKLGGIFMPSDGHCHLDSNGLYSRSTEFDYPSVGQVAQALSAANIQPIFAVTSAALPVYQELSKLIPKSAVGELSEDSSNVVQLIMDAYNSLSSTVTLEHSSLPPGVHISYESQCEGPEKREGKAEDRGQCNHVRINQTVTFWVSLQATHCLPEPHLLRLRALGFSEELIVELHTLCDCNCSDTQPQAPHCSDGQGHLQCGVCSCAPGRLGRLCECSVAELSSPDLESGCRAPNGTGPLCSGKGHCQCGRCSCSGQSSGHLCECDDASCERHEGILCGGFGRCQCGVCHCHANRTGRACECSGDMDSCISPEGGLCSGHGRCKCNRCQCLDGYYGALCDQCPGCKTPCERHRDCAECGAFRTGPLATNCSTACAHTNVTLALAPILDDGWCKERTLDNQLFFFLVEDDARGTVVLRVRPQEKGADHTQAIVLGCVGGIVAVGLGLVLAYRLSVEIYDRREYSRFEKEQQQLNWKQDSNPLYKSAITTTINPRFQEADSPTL
Assay: α4β7 Integrin Cell Capture Assay
Format: cell-based
Conditions: Table 1; capture of α4β7 expressing RPM18866 cells on MadCAM-1 extracellular domain-coated plate
pEC50: −log10 of the molar value.
Rule: pEC50 under 9 gives -1, otherwise 1.

The following compounds have reported results that may help.
• CC[C@@H](Nc1cc(F)c(C(=O)N[C@@H](Cc2ccc(-c3c(C(F)(F)F)cc(C)n(C)c3=O)c3ncccc23)C(=O)O)c(Cl)c1)C(F)(F)F = 1
• N#Cc1ccc(-c2ccc(C[C@H](NC(=O)c3c(F)cc(N[C@@H](C4CC4)C(F)(F)F)cc3F)C(=O)O)c3cccnc23)c(Cl)c1 = -1

Next:
Is pEC50 for CC[C@@H](Nc1cc(F)c(C(=O)N[C@@H](Cc2ccc(-c3c(C)c4cc(F)ccc4n(C)c3=O)c3ncccc23)C(=O)O)c(F)c1)C(F)(F)F (atropisomer, axis not shown) at or above 9? 1
